Experiment: modulators of AGP1-GFP expression in yeast TOR pathway, primary screen, cell-based, multiplex flow cytometry, S. cerevisiae (AID 1887);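 also: AGP1-GFP fusion strain of S. cerevisiae within a five-strain barcoded multiplex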
Details: 3 h, at 10 µM, stronger effect = higher value
Inconclusive results are not listed.
Catalogue of GFP response, % of DMSO readings, one per entry.
Supply the numeric figure in %, leaving out any unit text.

Guide cases for GFP response, % of DMSO, answers given:
{"columns": ["compound", "uom", "GFP response, % of DMSO"],
 "data": [
  ["CN(CCCN1CCOCC1)Cc1cn(C)nc1-c1ccccc1F", "%", 114],
  ["CN1CCC(=C2c3ccccc3C=Cc3ccccc32)CC1", "%", 99.7],
  ["Nc1ccc(N)c(C(=O)O)c1", "%", 90.3],
  ["CC(=O)c1c(N)nc2n(c1=O)CCCCC2", "%", 102]
]}

Kindly consider the entry below.
The compound listed as O=C(CC(C(=O)O)c1c[nH]c2ccccc12)c1ccccc1 (stereo not drawn) shows GFP response, % of DMSO equal to 96.3

====

Biological target: Beta-adrenergic receptor kinase 1 (Homo sapiens)
Test: GRK2 binders displacing RNA aptamer, biochemical, validation, human GRK2, bead flow cytometry (AID 488806)
Conditions: bead-bound GRK2, FAM-aptamer displacement, at 10 µM, stronger effect = higher value
Catalogue of aptamer binding inhibition readings, one per entry.
Supply the numeric figure in %, leaving out any unit text.

Guide cases for aptamer binding inhibition, answers given:
{"columns": ["compound", "target-or-test-system", "aptamer binding inhibition, %"],
 "data": [
  ["CC(C)[N+]1(C)[C@@H]2CC[C@H]1CC(OC(=O)C(CO)c1ccccc1)C2 (some centres undefined)", "Beta-adrenergic receptor kinase 1 (Homo sapiens)", -2],
  ["O=c1cc(-c2ccc3c(c2)OCCO3)oc2ccc(Cl)cc12", "Beta-adrenergic receptor kinase 1 (Homo sapiens)", -1],
  ["Cc1ccc2[nH]c3c(=O)n(CCCN4CCN(C)CC4)cnc3c2c1", "Beta-adrenergic receptor kinase 1 (Homo sapiens)", 4],
  ["O=c1cc(Cn2ccnc2)c2cc3c(cc2o1)CCC3", "Beta-adrenergic receptor kinase 1 (Homo sapiens)", -2],
  ["CC(C)(C)[C@]1(O)CCN2C[C@H]3c4ccccc4CCc4cccc(c43)[C@@H]2C1", "Beta-adrenergic receptor kinase 1 (Homo sapiens)", -4]
]}

The compound listed as "NCCOc1ccccc1OCCN" shows aptamer binding inhibition equal to -6

The compound listed as "CCN(CC)CCOC(=O)C1(C2CCCCC2)CCCCC1" shows aptamer binding inhibition equal to -2

The compound listed as "CCN(CC)C(=S)SSC(=S)N(CC)CC" shows aptamer binding inhibition equal to 4

The compound listed as "COc1cccc(N2C(=O)[C@H]3C(C(=O)c4cnccn4)=NN[C@H]3C2=O)c1" shows aptamer binding inhibition equal to 2

====

Catalogue of GFP response vs DMSO readings, one per entry.
Test: RPL19A-GFP modulators, yeast TOR pathway, confirmation, cell-based, S. cerevisiae, flow cytometry, cherry picks, mother/daughter gates (AID 2270)
Details: S. cerevisiae RPL19A-GFP strain, 3 h, measured here: mother cell gate, at 10 µM, stronger effect = lower value, 100 = same GFP as DMSO wells
Supply the numeric figure in %, leaving out any unit text.

{"columns": ["compound", "GFP response vs DMSO (%)"],
 "data": [
  ["CC(=O)Nc1ccc(NC(=O)CSc2ncc(C(=O)Nc3ccccc3)c(=O)n2C)cc1", 99.1],
  ["Nc1ccccc1SC(C[N+](=O)[O-])c1ccccc1 (stereo not drawn)", 87.6],
  ["CCSC1=NCCN1S(=O)(=O)c1ccc(F)cc1", 99]
]}

The compound listed as "Cc1cccc(/C(N)=N/OC(=O)C23CC4CC(CC(C4)C2)C3)c1" shows GFP response vs DMSO equal to 101

The compound listed as "COc1ccccc1NC(=O)c1ccc([N+](=O)[O-])o1" shows GFP response vs DMSO equal to 101

The compound listed as "COCCN(CCOC)S(=O)(=O)c1ccc(C(=O)Nc2nnc(C3CC3)o2)cc1" shows GFP response vs DMSO equal to 101

The compound listed as "COCCCNC(=O)c1ccc2c3c(onc13)-c1ccccc1C2=O" shows GFP response vs DMSO equal to 92.9

The compound listed as "Cc1ccc(S(=O)(=O)c2ncccc2N)cc1" shows GFP response vs DMSO equal to 99

The compound listed as "CC(C)C(=O)Nc1ccc(NC(=O)c2cc3ccccc3o2)cc1" shows GFP response vs DMSO equal to 98.6

The compound listed as CCS(=O)(=O)Nc1cccc(C2=NN(S(C)(=O)=O)C(c3ccccc3)C2)c1 (stereo not drawn) shows GFP response vs DMSO equal to 100

The compound listed as CCCc1[nH]nc2c1C(c1ccc(OCCN3CCOCC3)c(OC)c1)C(C#N)=C(N)O2 (stereo not drawn) shows GFP response vs DMSO equal to 98.2

The compound listed as "O=C(c1cccc2ccccc12)N1CCN(c2ccccc2F)CC1" shows GFP response vs DMSO equal to 95.7

The compound listed as "CCCn1c(=O)c(C(=O)Nc2ccccc2)c(O)c2ccccc21" shows GFP response vs DMSO equal to 95.6

====

Catalogue of GFP response, % of DMSO readings, one per entry.
Assay: modulators of CIT2-GFP expression in yeast, confirmation, S. cerevisiae, GFP fusion, cherry picks, mother/daughter gates (AID 2274)
Conditions: S. cerevisiae CIT2-GFP strain, flow cytometry, 3 h; measured here: mother cell gate; at 10 µM; stronger effect = higher value
Supply the numeric figure in %, leaving out any unit text.

Guide cases for GFP response, % of DMSO, answers given:
{"columns": ["compound", "reported"],
 "data": [
  ["CC(=O)c1sc2nc(C)c3c(c2c1N)CCCC3", 92.6],
  ["CC(OC(=O)CSc1ccc([N+](=O)[O-])cc1)C(=O)NCc1ccccc1 (stereo not drawn)", 96.6],
  ["C=CCN1C(=O)C2(C(C#N)=C(N)Oc3n[nH]c(CCC)c32)c2ccccc21 (stereo not drawn)", 102]
]}

The compound listed as Oc1c(C(Nc2cccc(C(F)(F)F)c2)c2ccncc2)ccc2cccnc12 (stereo not drawn) shows GFP response, % of DMSO equal to 94.5

====

Catalogue of GFP response, % of DMSO readings, one per entry.
Experiment: modulators of CIT2-GFP expression in yeast, confirmation, S. cerevisiae, GFP fusion, cherry picks, mother/daughter gates (AID 2274)
Details: S. cerevisiae CIT2-GFP strain, flow cytometry, 3 h; measured here: daughter cell gate; at 10 µM; stronger effect = higher value
Supply the numeric figure in %, leaving out any unit text.

Guide cases for GFP response, % of DMSO, answers given:
{"columns": ["compound", "GFP response, % of DMSO (%)"],
 "data": [
  ["COc1ccc(-c2csc(N(CC(C)C)C(=O)c3ccco3)n2)cc1", 101],
  ["O=C(NCCCSc1ccccc1)c1cc(Cl)ccc1O", 96.4],
  ["CCCN1CCc2c(sc(NC(=S)NC(=O)c3ccccc3)c2C#N)C1", 99.2],
  ["Cc1cc(NC(=O)c2cc3ccccc3o2)ccc1NC(=O)c1ccccc1", 101],
  ["Nc1ccc(S(=O)(=O)c2ccccc2)nc1", 94.8],
  ["CCOC(=O)c1sc(NC(=O)c2ccco2)nc1-c1ccccc1", 97.6]
]}

Kindly consider the entry below.
The compound listed as "CCn1cc([N+](=O)[O-])c(C(=O)Nc2nc(-c3ccc(C)c(C)c3)c(C)s2)n1" shows GFP response, % of DMSO equal to 99.1

====

Target: Integrin beta-1 (Homo sapiens) + Integrin alpha-4 (Homo sapiens) (UniProt P13612+P05556)
Sequence (P05556 whole entry, looked up): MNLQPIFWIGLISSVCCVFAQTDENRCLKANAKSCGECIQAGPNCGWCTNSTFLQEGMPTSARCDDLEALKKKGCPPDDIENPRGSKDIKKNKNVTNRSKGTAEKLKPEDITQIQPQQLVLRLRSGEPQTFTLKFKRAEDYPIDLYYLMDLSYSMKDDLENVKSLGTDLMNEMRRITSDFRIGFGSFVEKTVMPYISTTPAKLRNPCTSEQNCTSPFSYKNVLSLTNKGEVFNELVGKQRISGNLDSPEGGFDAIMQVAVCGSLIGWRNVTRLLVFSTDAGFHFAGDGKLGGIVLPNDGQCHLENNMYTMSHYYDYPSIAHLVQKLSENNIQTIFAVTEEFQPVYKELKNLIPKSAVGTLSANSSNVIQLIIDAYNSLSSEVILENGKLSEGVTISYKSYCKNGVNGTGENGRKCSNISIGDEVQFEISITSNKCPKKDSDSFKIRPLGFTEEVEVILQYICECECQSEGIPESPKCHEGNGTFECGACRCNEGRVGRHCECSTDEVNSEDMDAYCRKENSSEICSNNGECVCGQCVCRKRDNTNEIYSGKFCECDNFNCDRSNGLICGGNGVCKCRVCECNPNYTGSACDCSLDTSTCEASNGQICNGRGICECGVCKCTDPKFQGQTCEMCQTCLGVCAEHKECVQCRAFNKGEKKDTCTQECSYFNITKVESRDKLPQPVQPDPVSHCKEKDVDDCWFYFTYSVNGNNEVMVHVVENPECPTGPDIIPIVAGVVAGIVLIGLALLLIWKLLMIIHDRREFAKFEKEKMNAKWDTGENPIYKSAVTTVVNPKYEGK
Sequence (P13612 whole entry, looked up): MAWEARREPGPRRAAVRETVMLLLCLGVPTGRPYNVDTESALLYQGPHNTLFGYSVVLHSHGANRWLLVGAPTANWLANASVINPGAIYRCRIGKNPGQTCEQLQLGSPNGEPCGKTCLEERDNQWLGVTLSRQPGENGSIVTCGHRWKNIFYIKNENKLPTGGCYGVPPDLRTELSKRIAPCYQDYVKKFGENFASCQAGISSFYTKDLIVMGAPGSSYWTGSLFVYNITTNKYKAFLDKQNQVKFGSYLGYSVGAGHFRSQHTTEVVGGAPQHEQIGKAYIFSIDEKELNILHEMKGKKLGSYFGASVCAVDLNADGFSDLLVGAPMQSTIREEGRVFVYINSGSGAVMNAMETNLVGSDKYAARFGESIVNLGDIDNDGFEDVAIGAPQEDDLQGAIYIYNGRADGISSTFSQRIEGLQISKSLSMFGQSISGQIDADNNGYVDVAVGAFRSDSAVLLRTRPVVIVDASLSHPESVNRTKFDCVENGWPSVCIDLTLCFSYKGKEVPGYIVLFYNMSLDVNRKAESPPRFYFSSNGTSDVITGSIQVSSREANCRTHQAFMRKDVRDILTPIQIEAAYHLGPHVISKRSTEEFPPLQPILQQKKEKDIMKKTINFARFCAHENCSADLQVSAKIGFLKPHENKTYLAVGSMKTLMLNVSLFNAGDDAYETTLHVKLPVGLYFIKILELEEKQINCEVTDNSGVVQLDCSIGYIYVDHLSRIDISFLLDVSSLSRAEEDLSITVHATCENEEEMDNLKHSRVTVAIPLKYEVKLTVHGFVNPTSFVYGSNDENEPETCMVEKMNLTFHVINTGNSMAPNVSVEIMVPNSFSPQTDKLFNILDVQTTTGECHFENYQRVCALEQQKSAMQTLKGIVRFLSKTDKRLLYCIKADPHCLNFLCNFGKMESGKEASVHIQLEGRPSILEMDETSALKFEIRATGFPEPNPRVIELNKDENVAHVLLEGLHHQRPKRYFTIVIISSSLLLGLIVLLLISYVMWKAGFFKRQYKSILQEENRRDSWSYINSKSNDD
Experiment: inhibition of HUTS-21 binding to VLA-4, pilot screen, VLA-4 allosteric modulator project, U937 cells, HUTS-21 mAb, flow cytometry, validation set (AID 2674);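 also: antibody binding induced by the VLA-4 ligand LDV present at three times its Kd; 0% = LDV ligand with antibody and no compound and 100% = antibody without LDV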
Details: HUTS-21 LIBS mAb binding, at 6.7 µM, stronger effect = higher value, binding induced by LDV ligand
Catalogue of inhibition readings, one per entry.
Supply the numeric figure in %, leaving out any unit text.

{"columns": ["molecule", "target-or-test-system", "inhibition [%]"],
 "data": [
  ["Cc1c(OCC(=O)NC(Cc2c[nH]c3ccc(O)cc23)C(=O)O)ccc2c3c(c(=O)oc12)CCC3 (stereo not given)", "Integrin beta-1 (Homo sapiens) + Integrin alpha-4 (Homo sapiens) (UniProt P13612+P05556)", 6.29],
  ["CN=C1c2cc3cc(OC)ccc3n2CCN1C", "Integrin beta-1 (Homo sapiens) + Integrin alpha-4 (Homo sapiens) (UniProt P13612+P05556)", 11.9],
  ["CCC(=O)Oc1ccc(/C(CC)=C(\\CC)c2ccc(OC(=O)CC)cc2)cc1", "Integrin beta-1 (Homo sapiens) + Integrin alpha-4 (Homo sapiens) (UniProt P13612+P05556)", 19.1],
  ["COc1ccc(C(=O)[C@H]2[C@H]3C(=O)N(c4ccccc4)C(=O)[C@H]3C3C=CC=NN32)cc1 (stereo not given in full)", "Integrin beta-1 (Homo sapiens) + Integrin alpha-4 (Homo sapiens) (UniProt P13612+P05556)", -7.79],
  ["CC1CCCc2sc3ncn(N)c(=N)c3c21 (stereo not given)", "Integrin beta-1 (Homo sapiens) + Integrin alpha-4 (Homo sapiens) (UniProt P13612+P05556)", -3.16]
]}

Kindly consider the entry below.
The molecule listed as O=C(Nc1ccccc1)OCC1CCCN2CCCCC12 (stereo not given) shows inhibition equal to -0.27

The reported measurements were obtained from PubChem BioAssay.
